Exercise: for every item that follows, state its recorded Kd.
Target: T1, GFP-9S library array, motif 4 ND N98K;D124S (synthetic construct, N98K;D124S)
T1 chain: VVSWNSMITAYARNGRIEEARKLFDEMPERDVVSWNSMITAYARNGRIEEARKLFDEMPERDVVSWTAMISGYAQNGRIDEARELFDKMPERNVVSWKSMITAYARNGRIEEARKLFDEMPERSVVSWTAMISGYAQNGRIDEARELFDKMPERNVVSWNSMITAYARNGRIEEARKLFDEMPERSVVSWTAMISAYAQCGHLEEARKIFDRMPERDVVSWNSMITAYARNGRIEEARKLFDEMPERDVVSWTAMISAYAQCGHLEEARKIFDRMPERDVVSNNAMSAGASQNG
Experiment: high-throughput RNA pulldown from lysate on Ni-NTA beads; HRP: 50 mM Tris pH 8, 150 mM NaCl, 1 mM beta-mercaptoethanol, 50 ug/ml BSA, 3 ug/ml yeast RNA, 0.5% heparin; ITC and FP: Tris pH 8, 200 mM KCl, 5% glycerol; MST: 50 mM Tris pH 8, 200 mM NaCl, 1 mM DTT, BSA, heparin, 0.05% Tween 20
Conditions: tags: N-terminal His-eGFP; label: 5' Cy5
Express the result in nM but write the number alone.

What the record says about AUUACACGUGA (ssRNA) [Cy5-rpoA] : Kd is 67.8

For this binder ( AUUAGACGUGA (ssRNA) [Cy5-rpoA-G] ), measured Kd is 89.3
